# Test system: KRAS PDC tumor spheroids (HUVEC+MSC), viability
# protocol.text: Anticancer human tumor 254851-301-R-J1-PDC patient-derived colon carcinoma cell line growth inhibition [KRAS2]
# condition.info: second compound 3.16 µM; first compound 0.001 µM; stronger effect = lower value
Labelling field: enter Fulfilled if recorded viability, T/C is less than 70%. Enter Not fulfilled if it equals or exceeds that cut-off.

compound | cat
CN(C)C/C=C/C(=O)Nc1cc2c(Nc3ccc(F)c(Cl)c3)ncnc2cc1O[C@H]1CCOC1 + C=CC(=O)N1CCN(c2nc(=O)n(-c3c(C)ccnc3C(C)C)c3nc(-c4c(O)cccc4F)c(F)cc23)C(C)C1 | Not fulfilled
CN(C)C/C=C/C(=O)Nc1cc2c(Nc3ccc(F)c(Cl)c3)ncnc2cc1O[C@H]1CCOC1 + C=CC(=O)N1CCN(c2nc(OCC3CCCN3C)nc3c2CCN(c2cccc4cccc(C)c24)C3)CC1CC#N | Fulfilled
Cn1ncnc1[C@H]1c2n[nH]c(=O)c3cc(F)cc(c23)N[C@@H]1c1ccc(F)cc1 + CC1OCC2(CCN(c3cnc(Sc4ccnc(N)c4Cl)c(N)n3)CC2)C1N | Not fulfilled

Attention now turns to another entry.
Here's an entry: CN(C)C/C=C/C(=O)Nc1cc2c(Nc3ccc(F)c(Cl)c3)ncnc2cc1O[C@H]1CCOC1 + COc1cc2nc(C)nc(NC(C)c3cc(N)cc(C(F)(F)F)c3)c2cc1OC1CCOC1 . Is its viability, T/C below 70%? Not fulfilled

* * *

# Test system: KRAS PDC tumor spheroids (HUVEC+MSC), viability
# protocol.text: Anticancer human tumor 254851-301-R-J1-PDC cell line growth inhibition [KRAS2];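 further: spheroids exposed to compounds for seven days before readout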
# condition.info: curve of first compound; second compound 10 µM
readout.label: IC50 (nM)
Only the number, expressed in nM, is required.

compound | IC50, nM
COc1cc(Nc2ncc3c(n2)-c2ccc(Cl)cc2C(c2c(F)cccc2OC)=NC3)ccc1C(=O)O + CC1OCC2(CCN(c3cnc(Sc4ccnc(N)c4Cl)c(N)n3)CC2)C1N | 41.4

Continue with the compound presented below.
Sure, the documented IC50 for CC(=O)OC12COC1CC(O)C1(C)C(=O)C(O)C3=C(C)C(OC(=O)C(O)C(NC(=O)OC(C)(C)C)c4ccccc4)CC(O)(C(OC(=O)c4ccccc4)C21)C3(C)C (configuration not stated) + C=CC(=O)N1CCN(c2nc(=O)n(-c3c(C)ccnc3C(C)C)c3nc(-c4c(O)cccc4F)c(F)cc23)C(C)C1 is 208

* * *

# Tested on: KRAS PDC tumor spheroids (HUVEC+MSC), viability
# protocol.text: Anticancer human tumor 254851-301-R-J1-PDC cell line growth inhibition [KRAS2];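 further: spheroids exposed to compounds for seven days before readout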;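 on viability, T/C: 100% = DMSO vehicle control luminescence of the spheroids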
# condition.info: second compound 0.316 µM; first compound 0.0316 µM; stronger effect = lower value
# Description: Multicellular complex tumor spheroid response to RAS pathway inhibitors in combination with a targeted agents in patient-derived cell lines with oncogenic KRAS variants from multiple cancer types A high-throughput screen of multi-cell type tumor spheroids was designed to identify active combinations of targeted small molecules and KRAS pathway inhibitors. […] Compounds. […] If the clinical Cmax for an agent had not been determined, the highest concentration tested was 10 microM. […]
Labelling field: enter met if recorded viability, T/C is less than 80%. Enter not met if it equals or exceeds that cut-off.

molecule | cat
CN(C)C/C=C/C(=O)Nc1cc2c(Nc3ccc(F)c(Cl)c3)ncnc2cc1O[C@H]1CCOC1 + CC1OCC2(CCN(c3cnc(Sc4ccnc(N)c4Cl)c(N)n3)CC2)C1N | not met
CC(C)NCC(C(=O)N1CCN(c2ncnc3c2C(C)CC3O)CC1)c1ccc(Cl)cc1 (stereo not given) + C=CC(=O)N1CCN(c2nc(OCC3CCCN3C)nc3c2CCN(c2cccc4cccc(C)c24)C3)CC1CC#N | not met
CCNC(=O)CC1N=C(c2ccc(Cl)cc2)c2cc(OC)ccc2-n2c(C)nnc21 (stereo not given) + C=CC(=O)N1CCN(c2nc(OCC3CCCN3C)nc3c2CCN(c2cccc4cccc(C)c24)C3)CC1CC#N | not met

Here's an entry: COc1cc(Nc2ncc3c(n2)-c2ccc(Cl)cc2C(c2c(F)cccc2OC)=NC3)ccc1C(=O)O + COc1cc2nc(C)nc(NC(C)c3cc(N)cc(C(F)(F)F)c3)c2cc1OC1CCOC1 . Is its viability, T/C below 80%? not met

Here's an entry: CC(=O)Nc1cccc(-n2c(=O)n(C3CC3)c(=O)c3c(Nc4ccc(I)cc4F)n(C)c(=O)c(C)c32)c1 + C=CC(=O)N1CCN(c2nc(=O)n(-c3c(C)ccnc3C(C)C)c3nc(-c4c(O)cccc4F)c(F)cc23)C(C)C1 . Is its viability, T/C below 80%? met

* * *

# Tested on: KRAS PDC tumor spheroids (HUVEC+MSC), viability
# protocol.text: Anticancer human tumor 254851-301-R-J1-PDC cell line growth inhibition [KRAS2];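 further: spheroids exposed to compounds for seven days before readout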;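 on viability, T/C: 100% = DMSO vehicle control luminescence of the spheroids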
# condition.info: second compound 0.316 µM; first compound 0.000316 µM; stronger effect = lower value
# Excerpt: Multicellular complex tumor spheroid response to RAS pathway inhibitors in combination with a targeted agents in patient-derived cell lines with oncogenic KRAS variants from multiple cancer types A high-throughput screen of multi-cell type tumor spheroids was designed to identify active combinations of targeted small molecules and KRAS pathway inhibitors. […] Compounds. […] If the clinical Cmax for an agent had not been determined, the highest concentration tested was 10 microM. […]
Labelling field: enter True if recorded viability, T/C is less than 90%. Enter False if it equals or exceeds that cut-off.

Past entries and their recorded results:
molecule | cat
CC(=O)Nc1cccc(-n2c(=O)n(C3CC3)c(=O)c3c(Nc4ccc(I)cc4F)n(C)c(=O)c(C)c32)c1 + CC1OCC2(CCN(c3cnc(Sc4ccnc(N)c4Cl)c(N)n3)CC2)C1N | True
CC(C)n1nc(-c2ccc3oc(N)nc3c2)c2c(N)ncnc21 + COc1cc2nc(C)nc(NC(C)c3cc(N)cc(C(F)(F)F)c3)c2cc1OC1CCOC1 | False
CC(=O)Nc1cccc(-n2c(=O)n(C3CC3)c(=O)c3c(Nc4ccc(I)cc4F)n(C)c(=O)c(C)c32)c1 + COc1cc2nc(C)nc(NC(C)c3cc(N)cc(C(F)(F)F)c3)c2cc1OC1CCOC1 | False
CC(C)n1nc(-c2ccc3oc(N)nc3c2)c2c(N)ncnc21 + C=CC(=O)N1CCN(c2nc(=O)n(-c3c(C)ccnc3C(C)C)c3nc(-c4c(O)cccc4F)c(F)cc23)C(C)C1 | False

Here's an entry: CN(C)C/C=C/C(=O)Nc1cc2c(Nc3ccc(F)c(Cl)c3)ncnc2cc1O[C@H]1CCOC1 + CC1OCC2(CCN(c3cnc(Sc4ccnc(N)c4Cl)c(N)n3)CC2)C1N . Is its viability, T/C below 90%? False

* * *

# Test system: KRAS PDC tumor spheroids (HUVEC+MSC), viability
# protocol.text: Anticancer human tumor 254851-301-R-J1-PDC cell line growth inhibition [KRAS2];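 further: spheroids exposed to compounds for seven days before readout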
# condition.info: curve of first compound; second compound 0.316 µM
# From the text: Multicellular complex tumor spheroid response to RAS pathway inhibitors in combination with a targeted agents in patient-derived cell lines with oncogenic KRAS variants from multiple cancer types A high-throughput screen of multi-cell type tumor spheroids was designed to identify active combinations of targeted small molecules and KRAS pathway inhibitors. […] Compounds. […] If the clinical Cmax for an agent had not been determined, the highest concentration tested was 10 microM. […]
# Lookup of reported pIC50 keyed by entry
Note: pIC50 values are expressed as the negative base-10 logarithm of concentration in M.

compound | numeric.value
COc1cc(Nc2ncc3c(n2)-c2ccc(Cl)cc2C(c2c(F)cccc2OC)=NC3)ccc1C(=O)O + CC1OCC2(CCN(c3cnc(Sc4ccnc(N)c4Cl)c(N)n3)CC2)C1N | 7.10

Reading of pIC50 for Cn1nccc1Nc1nccc(-c2cc3c(s2)C(C)(C)N(CCN2CCOCC2)C3=O)n1 + COc1cc2nc(C)nc(NC(C)c3cc(N)cc(C(F)(F)F)c3)c2cc1OC1CCOC1 with KRAS PDC tumor spheroids (HUVEC+MSC), viability: 5.74

* * *

# Tested on: KRAS PDC tumor spheroids (HUVEC+MSC), viability
# protocol.text: Anticancer human tumor 254851-301-R-J1-PDC cell line growth inhibition [KRAS2]; active means viability on the fitted dose curve at most 10% of control; inactive means the rest;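 further: spheroids exposed to compounds for seven days before readout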
# condition.info: second compound 3.16 µM; first compound 10 µM
# From the text: Multicellular complex tumor spheroid response to RAS pathway inhibitors in combination with a targeted agents in patient-derived cell lines with oncogenic KRAS variants from multiple cancer types A high-throughput screen of multi-cell type tumor spheroids was designed to identify active combinations of targeted small molecules and KRAS pathway inhibitors. […] Compounds. […] If the clinical Cmax for an agent had not been determined, the highest concentration tested was 10 microM. […]
Outcomes you can answer with include only these: YES (active), NO (inactive)

Past entries and their recorded results:
compound | cat
COC(=O)c1ccc2c(C(=Nc3ccc(N(C)C(=O)CN4CCN(C)CC4)cc3)c3ccccc3)c(O)[nH]c2c1 + C=CC(=O)N1CCN(c2nc(=O)n(-c3c(C)ccnc3C(C)C)c3nc(-c4c(O)cccc4F)c(F)cc23)C(C)C1 | NO
CC(C)NCC(C(=O)N1CCN(c2ncnc3c2C(C)CC3O)CC1)c1ccc(Cl)cc1 (stereo unspecified) + CNCc1ccccc1-c1csc(C(C)Nc2nc(C)nc3cc(OC)c(OC)cc23)c1 | NO
Cn1nccc1Nc1nccc(-c2cc3c(s2)C(C)(C)N(CCN2CCOCC2)C3=O)n1 + CNCc1ccccc1-c1csc(C(C)Nc2nc(C)nc3cc(OC)c(OC)cc23)c1 | YES

State the result this test recorded for CC1OCC2(CCN(c3cnc(Sc4ccnc(N)c4Cl)c(N)n3)CC2)C1N (stereo unspecified) + COc1cc2nc(C)nc(NC(C)c3cc(N)cc(C(F)(F)F)c3)c2cc1OC1CCOC1 . NO

State the result this test recorded for COc1cc(Nc2ncc3c(n2)-c2ccc(Cl)cc2C(c2c(F)cccc2OC)=NC3)ccc1C(=O)O + C=CC(=O)N1CCN(c2nc(OCC3CCCN3C)nc3c2CCN(c2cccc4cccc(C)c24)C3)CC1CC#N . YES

State the result this test recorded for COc1cc2nccc(Oc3ccc(NC(=O)C4(C(=O)Nc5ccc(F)cc5)CC4)cc3)c2cc1OC + COc1cc2nc(C)nc(NC(C)c3cc(N)cc(C(F)(F)F)c3)c2cc1OC1CCOC1 . NO
